Reference for the values: paper PMC3807862

measured-on: Human neutrophil elastase (HNE) (Homo sapiens)
measurement-protocol: HNE inhibition assay
pIC50: −log10 of the molar value.
value-type: pIC50

Problem: Param readout= pIC50; system= Human neutrophil elastase (HNE) (Homo sapiens); entry= CCOC(=O)c1nn(C(=O)c2cccc(C)c2)c2ccc(NC(=O)C3CC3)cc12 [Compound 20f] ; returns value.
Solution: ~8.00

---

The entries below come with measured period of maximal HNE inhibition (during the first x h) values attached.
measured-on: HNE (Homo sapiens, UniProt P08246)
Sequence (P08246 30-267): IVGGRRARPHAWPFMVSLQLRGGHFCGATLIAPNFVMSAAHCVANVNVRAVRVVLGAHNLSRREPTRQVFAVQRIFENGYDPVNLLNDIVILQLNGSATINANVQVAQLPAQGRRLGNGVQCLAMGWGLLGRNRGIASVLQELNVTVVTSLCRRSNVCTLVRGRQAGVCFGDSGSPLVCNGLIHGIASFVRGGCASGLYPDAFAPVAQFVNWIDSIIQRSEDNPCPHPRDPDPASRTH
measurement-protocol: HNE inhibition over time
Format: biochemical
condition-details: 5 μM compound
Respond with the bare value in h.

molecule | experimental-result
CCOC(=O)c1nn(C(=O)c2cccc(C)c2)c2ccc(NC(C)=O)cc12 [Compound 20a] | 4
COC(=O)c1nn(C(=O)c2cccc(C)c2)c2cc([N+](=O)[O-])ccc12 | 4
COC(=O)c1nn(C(=O)c2cccc(C)c2)c2ccc([N+](=O)[O-])cc12 [Compound 14b] | 4

Problem: Consider the molecule CCOC(=O)c1nn(C(=O)c2cccc(C)c2)c2ccc(NC(=O)C3CC3)cc12 [Compound 20f] and give its measured period of maximal HNE inhibition (during the first x h).
Solution: 5
